Please go through the items and note down their pKi.
Molecular target: Acetylcholinesterase (Bos taurus, UniProt P23795)
Sequence (P23795 whole entry): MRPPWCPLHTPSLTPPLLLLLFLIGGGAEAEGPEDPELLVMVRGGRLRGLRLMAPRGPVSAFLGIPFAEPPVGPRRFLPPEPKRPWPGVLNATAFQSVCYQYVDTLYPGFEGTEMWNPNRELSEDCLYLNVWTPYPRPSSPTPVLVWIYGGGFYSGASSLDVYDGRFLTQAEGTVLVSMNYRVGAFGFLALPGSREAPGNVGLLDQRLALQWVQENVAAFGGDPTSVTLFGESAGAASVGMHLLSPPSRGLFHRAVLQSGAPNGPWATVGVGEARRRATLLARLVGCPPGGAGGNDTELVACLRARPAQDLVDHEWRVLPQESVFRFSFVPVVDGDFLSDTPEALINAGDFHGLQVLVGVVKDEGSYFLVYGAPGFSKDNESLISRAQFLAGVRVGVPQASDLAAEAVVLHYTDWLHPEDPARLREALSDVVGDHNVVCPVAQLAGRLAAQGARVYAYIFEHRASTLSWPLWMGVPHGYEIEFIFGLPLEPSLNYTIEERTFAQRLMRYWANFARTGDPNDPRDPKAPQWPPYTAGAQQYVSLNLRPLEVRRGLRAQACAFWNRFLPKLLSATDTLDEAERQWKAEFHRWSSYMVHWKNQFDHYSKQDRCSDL
Experiment: Inhibitory constant against fetal bovine serum (FBS) acetylcholinesterase
Numbers only, as −log10 of the molar value.

Before answering, review these 3 worked examples.
• CC1=CC2Cc3nc(O)ccc3C3(C1)NCC(C)=C23 (stereo not given) = 6.66
• CCC1=C2C3C=C(C)CC2(NC1)c1ccc(O)nc1C3 (stereo not given) = 6.40
• C/C=C1\[C@H]2C=C(C)C[C@]1(N)c1ccc(=O)[nH]c1C2 = 7.62

Dear colleague, could you please provide pKi for the compounds listed below?
1. CC1=CC2Cc3[nH]c(=O)ccc3C3(C1)NCCC(C)=C23 (stereo not given)
2. CC1=C[C@H]2Cc3[nH]c(=O)ccc3[C@]3(C1)NCCC[C@H]23

5.69
6.10

The reported numbers originate from ChEMBL document CHEMBL1135132.
